test system: HEK 293 cells; experiment: Co-apoptotic activity of MBD peptides and paclitaxel, caspase-3; type: cell-based, human; details: normalized to MBD2 = 100 on a molar basis; peptide 50 ng/ml, 0.3 ng/ml paclitaxel, 8 hours
Items are presented alongside their recorded Apoptotic Activity.

input: Please indicate Apoptotic Activity recorded for DKKGFYKKKQCRPSKGRKRGFCW [MBD1]
output: 10-15 arbitrary caspase-3 units

input: Quick one: give measured Apoptotic Activity for KKGFYKKKQCRPSKGRKRGFCWNGRK [MBD9]
output: 149 arbitrary caspase-3 units

input: Name the recorded Apoptotic Activity of the item QCKPSRGRKRGICW [BP5n1s] in your answer.
output: <5 arbitrary caspase-3 units

input: Quote Apoptotic Activity reported for KKEKDIMKKTIQCRPSKGRKRGFCWNGR [MBD10] please.
output: 127 arbitrary caspase-3 units

input: Give reported Apoptotic Activity value for CRPSKGRKRGFCW [MBD12]
output: 10-40 arbitrary caspase-3 units

input: Please list Apoptotic Activity recorded for the sequence QCRPSEGGKRGFCW [MBD3]
output: <5 arbitrary caspase-3 units

* * *

// Metal-binding lookup, one value per entry
experiment: Metal-binding of peptides to Ni-NTA resin; conditions: percentage of loaded peptide bound to Ni-NTA resin; 1-1.5 mg loaded
Numeric only. Scale: percentage

Observe how each entry below is paired with its result.
# sequence-string, Metal-binding / percentage
records = [
    ("GFYKKKQCRPSKGRKRGFCW [MBD5]", 95),
    ("QCRPSKGRKRGFCWNGR [MBD7]", 11),
    ("DKKGFYKKKQCRPSKGRKRGFCW [MBD1]", 22),
    ("KKGFYKKKQCRPSKGRKRGFCWNGRK [MBD9]", 45),
    ("QCRPSEGGKRGFCW [MBD3]", 100),
    ("QCKPSRGRKRGICW [BP5n1s]", 28),
]

input: Name the recorded Metal-binding of the item QCRPSKGRKRGFCW [MBD2] in your answer.
output: 66

input: Answer with the recorded Metal-binding for the sequence listed here: CRPSKGRKRGFC [MBD4]
output: 92

* * *

test system: HEK 293 cells; experiment: Co-apoptotic activity of MBD peptides and paclitaxel, caspase-3; type: cell-based, human; details: normalized to MBD2 = 100 on a molar basis; peptide 50 ng/ml, 0.3 ng/ml paclitaxel, 8 hours
readout-label: Apoptotic Activity

# sequence-string, Apoptotic Activity
records = [
    ("GFYKKKQCRPSKGRKRGFCW [MBD5]", "10-15 arbitrary caspase-3 units"),
    ("QCKMSLNGQRGECW [BP2n1s]", "<5 arbitrary caspase-3 units"),
    ("QCRPSKGRKRGFC [MBD13]", "10-40 arbitrary caspase-3 units"),
    ("QCRPSKGRKRGFCWNGR [MBD7]", "89 arbitrary caspase-3 units"),
    ("QCRPSKGRKRGFCW [MBD2]", "100 arbitrary caspase-3 units"),
]

Then this sequence:
input: Please indicate Apoptotic Activity recorded for CRPSKGRKRGFC [MBD4]
output: 10-15 arbitrary caspase-3 units
